Below: a set of entries, each annotated with reported ΔTm.
System: Quadruplex DNA
method: Binding affinity to synthetic BCL2 G4 quadruplex DNA assessed as change in melting temperature at 10 molar equiv to DNA measured after 10 mins by circular dichroism melting analysis
Assay type: nucleic-acid assay
reported-metric: ΔTm

>>> obs_value("CN(C)c1ccc(-c2nc3c4ncn(CCN5CCOCC5)c4ncn3c2NC(C)(C)C)cc1")
"9.2 °C"
>>> obs_value("CC(C)(C)Nc1c(-c2ccc(Cl)cc2)nc2c3ncn(CCN4CCOCC4)c3ncn12")
"2.1 °C"
>>> obs_value("CC(C)(C)Nc1c(-c2ccc(Cl)cc2)nc2c3ncn(CCN4CCCC4)c3ncn12")
"4.5 °C"
>>> obs_value("CC(C)(C)Nc1c(-c2ccc(N3CCOCC3)cc2)nc2c3ncn(CCN4CCOCC4)c3ncn12")
"4.9 °C"
>>> obs_value("CN(C)c1ccc(-c2nc3c4ncn(CCN5CCCC5)c4ncn3c2NC(C)(C)C)cc1")
"13.4 °C"

###

System: Quadruplex DNA
method: Binding affinity to synthetic c-KIT1 G4 quadruplex DNA assessed as change in melting temperature at 10 molar equiv to DNA measured after 10 mins by circular dichroism melting analysis
Type: nucleic-acid assay
Could you mark each record Satisfied if its ΔTm falls strictly under 3 °C, and Not satisfied if it equals or exceeds it?

>>> assigned_label("CN(C)c1ccc(-c2nc3c4ncn(CCN5CCOCC5)c4ncn3c2NC(C)(C)C)cc1")
"Not satisfied"
>>> assigned_label("CN(C)c1ccc(-c2nc3c4ncn(CCCN)c4ncn3c2NC(C)(C)C)cc1")
"Satisfied"
>>> assigned_label("CC(C)(C)Nc1c(-c2ccc(N3CCOCC3)cc2)nc2c3ncn(CCN4CCCC4)c3ncn12")
"Satisfied"
>>> assigned_label("CC(C)(C)Nc1c(-c2ccc(Cl)cc2)nc2c3ncn(CCN4CCOCC4)c3ncn12")
"Satisfied"
>>> assigned_label("CN(C)CCCn1cnc2c1ncn1c(NC(C)(C)C)c(-c3ccc(N4CCOCC4)cc3)nc21")
"Not satisfied"
>>> assigned_label("CN(C)c1ccc(-c2nc3c4ncn(CCN5CCCC5)c4ncn3c2NC(C)(C)C)cc1")
"Not satisfied"
>>> assigned_label("CC(C)(C)Nc1c(-c2ccccc2F)nc2c3ncn(CCN4CCOCC4)c3ncn12")
"Satisfied"
>>> assigned_label("CN(C)CCCn1cnc2c1ncn1c(NC(C)(C)C)c(-c3ccc(Cl)cc3)nc21")
"Satisfied"
>>> assigned_label("CN(C)c1ccc(-c2nc3c4ncn(CCCNC(=N)N)c4ncn3c2NC(C)(C)C)cc1")
"Satisfied"
>>> assigned_label("CC(C)(C)Nc1c(-c2ccccc2OCCN2CCCC2)nc2c3ncn(CCN4CCCC4)c3ncn12")
"Not satisfied"
>>> assigned_label("CN(C)CCCn1cnc2c1ncn1c(NC(C)(C)C)c(-c3ccccc3F)nc21")
"Satisfied"
>>> assigned_label("CC(C)(C)Nc1c(-c2ccccc2F)nc2c3ncn(CCN4CCCC4)c3ncn12")
"Satisfied"
>>> assigned_label("CN(C)CCCn1cnc2c1ncn1c(NC(C)(C)C)c(-c3ccc(N(C)C)cc3)nc21")
"Not satisfied"
>>> assigned_label("CC(C)(C)Nc1c(-c2ccc(Cl)cc2)nc2c3ncn(CCN4CCCC4)c3ncn12")
"Satisfied"
>>> assigned_label("CC(C)(C)Nc1c(-c2ccc(N3CCOCC3)cc2)nc2c3ncn(CCN4CCOCC4)c3ncn12")
"Satisfied"
>>> assigned_label("CC(C)(C)Nc1c(-c2ccccc2OCCN2CCOCC2)nc2c3ncn(CCN4CCOCC4)c3ncn12")
"Satisfied"
>>> assigned_label("CN(C)CCCOc1ccccc1-c1nc2c3ncn(CCCN(C)C)c3ncn2c1NC(C)(C)C")
"Not satisfied"
